Reference source: PubChem BioAssay AID1347147

# ASSAY_TARGET: N-terminal Xaa-Pro-Lys N-methyltransferase 1 (Homo sapiens) (UniProt Q9BV86)
# Sequence (Q9BV86 whole entry, looked up): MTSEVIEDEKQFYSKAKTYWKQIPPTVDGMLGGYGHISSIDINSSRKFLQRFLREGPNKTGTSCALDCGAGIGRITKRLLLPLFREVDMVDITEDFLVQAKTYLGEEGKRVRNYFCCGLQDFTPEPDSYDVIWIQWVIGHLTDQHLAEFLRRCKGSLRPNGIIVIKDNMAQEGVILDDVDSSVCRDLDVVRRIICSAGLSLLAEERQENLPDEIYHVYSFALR
# MEASUREMENT_PROTOCOL: qHTS Assay for Inhibitors of N-terminal methyltransferase 1 (NTMT1): MTaseGlo Confirmatory Screen, Round 2
# CONDITION_PARAMETERS: NTMT1 enzyme, MTase-Glo SAH luminescence; series mostly up to 57.4 µM
Inconclusive results are not listed. Calls of active or inactive are those of the source. Calls follow the shape of the dose curve; as a rule, active = well fitted inhibition curve with a large enough effect; inconclusive = small, poorly fitted or top-dose-only effect; inactive = no such curve, though single readings can be large or run the other way.
Classes used: YES for active, NO for inactive

> print(dat)
                                   compound  assigned.category
1  NC(Cc1cc(O)c(O)cc1O)C(=O)O (configuration not stated)                YES
2         CCCN(CCC)[C@H]1CCc2c(F)ccc(O)c2C1                 NO
3  CC(N)Cc1c[nH]c2ccc(O)cc12 (configuration not stated)                 NO
4  COc1ccc2c(c[n+](C)c3c4cc5c(cc4ccc23)OCO5)c1OC                 NO
5  O=C1CC[C@@]2(O)C3Cc4ccc(O)c5c4C2(CCN3CC2CC2)[C@H]1O5 (some centres not stated)                 NO
6                                  NC(=O)CI                YES
7  O=S1(=O)N(CCN2CC=C(c3c[nH]c4cc(F)ccc34)CC2)c2cccc3c2N1CCC3                 NO
